Tested on: Glycine receptor subunit alpha-1 (Homo sapiens)
Assay comment: Antagonist activity at human recombinant alpha 1 GlyR expressed in HEK293 cells assessed as inhibition of glycine current influx by whole cell patch clamp assay
Format: functional, cell-based
Reported metric: IC50

Compound	Val
C/C(=C\CCC1=CCN(CC(=O)O)C1=O)CC/C=C(\C)CCC[C@H](C)CC(=O)O	Not Active
CC1=C(O)/C(=C/C(C)/C=C/C=C(\C)CCCc2coc(Cc3ccoc3)c2)OC1=O (centres undefined)	Not Active
CCOC(=O)C(O)(C[C@@H](C)CCC/C(C)=C/CC/C(C)=C/CCC1=CCN(CC(=O)O)C1=O)C(C)(O)C(=O)O (some centres undefined)	Not Active
CC1=C(O)/C(=C/[C@@H](C)CCC/C(C)=C/CCC(C)(O)CCCC2=CC(=O)N(CC(=O)O)C2)OC1=O (some centres undefined) [8-HYDROXYIRCINIALACTAM B]	Not Active

====

Tested on: Glycine receptor subunit alpha-3 (Homo sapiens)
Sequence (O75311 whole entry): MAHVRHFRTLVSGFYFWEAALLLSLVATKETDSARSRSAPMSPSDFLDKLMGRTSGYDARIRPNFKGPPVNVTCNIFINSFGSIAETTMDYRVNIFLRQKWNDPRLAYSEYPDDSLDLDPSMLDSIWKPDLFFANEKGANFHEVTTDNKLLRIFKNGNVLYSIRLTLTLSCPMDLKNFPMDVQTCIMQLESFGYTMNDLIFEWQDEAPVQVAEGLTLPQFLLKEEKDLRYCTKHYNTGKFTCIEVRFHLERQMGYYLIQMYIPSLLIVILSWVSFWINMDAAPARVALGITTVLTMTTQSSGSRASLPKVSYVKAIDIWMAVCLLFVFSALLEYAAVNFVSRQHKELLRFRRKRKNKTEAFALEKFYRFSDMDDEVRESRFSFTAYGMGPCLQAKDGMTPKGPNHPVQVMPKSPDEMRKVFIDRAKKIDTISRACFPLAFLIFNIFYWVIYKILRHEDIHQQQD
Assay comment: Antagonist activity at human recombinant alpha 3 GlyR expressed in HEK293 cells assessed as inhibition of glycine current influx by whole cell patch clamp assay
Format: functional, cell-based
Condition context: read-out: IC50
Reported IC50 values follow for various molecules
Respond numerically; units are µM and should not be typed.

> print(dat)
                                   molecule                                 tested.on  reported.metric  val
1  CC1=C(O)/C(=C/[C@@H](C)CCC/C(C)=C/CC/C(C)=C/CCC2=CCN(CC(=O)O)C2=O)OC1=O  Glycine receptor subunit alpha-3 (Homo sapiens)             IC50   30
2  CC1=C(O)/C(=C/[C@@H](C)CCC/C(C)=C/CCC(C)(O)CCCc2ccoc2)OC1=O (stereo not given in full)  Glycine receptor subunit alpha-3 (Homo sapiens)             IC50    7
3  CCOC(=O)C(O)(C[C@@H](C)CCC/C(C)=C/CC/C(C)=C/CCC1=CCN(CC(=O)O)C1=O)C(C)(O)C(=O)O (stereo not given in full)  Glycine receptor subunit alpha-3 (Homo sapiens)             IC50   30
4  C/C(=C\CCC1=CCN(CC(=O)O)C1=O)CC/C=C(\C)CCC[C@@H](C)CC(=O)O  Glycine receptor subunit alpha-3 (Homo sapiens)             IC50   30

Look up IC50 of C/C(=C\CCC1=CCN(CC(=O)O)C1=O)CC/C=C(\C)CCC[C@H](C)CC(=O)O and report it.
30

====

Tested on: Glycine receptor subunit alpha-1 (Homo sapiens, UniProt P23415)
Assay comment: Agonist activity at human recombinant alpha 1 GlyR expressed in HEK293 cells assessed as potentiation of glycine current by whole cell patch clamp assay
Type: functional, cell-based
Condition context: read-out: EC50
Reported EC50 values follow for various compounds
Respond numerically; units are nM and should not be typed.

Compound	Tested on	EC50 / nM
CC1=C(O)/C(=C/[C@@H](C)CCC/C(C)=C/CCC(C)(O)CCCc2ccoc2)OC1=O (some centres not stated)	Glycine receptor subunit alpha-1 (Homo sapiens, UniProt P23415)	1200

// next entry
Look up EC50 of CC1=C(O)/C(=C/[C@@H](C)CCC/C(C)=C/CCC(C)(O)CCCC2=CC(=O)N(CC(=O)O)C2)OC1=O (some centres not stated) [8-HYDROXYIRCINIALACTAM B] and report it.
500

====

Tested on: Glycine receptor subunit alpha-1 (Homo sapiens)
Assay comment: Antagonist activity at human recombinant alpha 1 GlyR expressed in HEK293 cells assessed as inhibition of glycine current influx up to 30 uM by whole cell patch clamp assay
Format: functional, cell-based
Active and inactive are the calls of the source. The rule behind the calls is not given here.
Form entry, call: pick from TRUE (active), FALSE (inactive)

See these solved cases before continuing.
> print(dat)
                                   molecule  category.label
1  Cc1c(C(=O)c2cccc3ccccc23)c2cccc3c2n1[C@H](CN1CCOCC1)CO3           FALSE
2  CC1=C(O)/C(=C/[C@@H](C)CCC/C(C)=C/CCC(C)(O)CCCc2ccoc2)OC1=O (some centres undefined)            TRUE
3  CCCCCCC(C)(C)c1cc(O)c2c(c1)OC(C)(C)[C@@H]1CC=C(CO)C[C@@H]21           FALSE

# input for lookup
Can you look up the reported call for CCCCCCC(C)(C)c1cc(OC)c([C@H]2C=C(CO)[C@@H]3C[C@H]2C3(C)C)c(OC)c1 for me?
FALSE

====

Reported Activity values follow for various compounds
Tested on: Glycine receptor subunit alpha-1 (Homo sapiens) (UniProt P23415)
Sequence (P23415 whole entry): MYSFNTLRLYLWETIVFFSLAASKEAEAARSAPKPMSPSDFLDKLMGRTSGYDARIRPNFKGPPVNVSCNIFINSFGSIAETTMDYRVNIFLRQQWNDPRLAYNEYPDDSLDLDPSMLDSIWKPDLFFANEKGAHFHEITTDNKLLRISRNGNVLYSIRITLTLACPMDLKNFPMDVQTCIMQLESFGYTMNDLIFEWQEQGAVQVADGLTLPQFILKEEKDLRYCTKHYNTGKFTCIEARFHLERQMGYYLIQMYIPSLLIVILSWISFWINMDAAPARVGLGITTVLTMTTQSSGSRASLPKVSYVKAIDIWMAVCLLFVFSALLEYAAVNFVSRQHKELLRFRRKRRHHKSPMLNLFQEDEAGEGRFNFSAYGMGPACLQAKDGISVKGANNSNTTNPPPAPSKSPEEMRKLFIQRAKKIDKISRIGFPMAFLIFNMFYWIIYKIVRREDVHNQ
Assay comment: Agonist activity at human recombinant alpha 1 GlyR expressed in HEK293 cells assessed as potentiation of glycine current at 100 uM by whole cell patch clamp assay relative to EC20 glycine maximum response
Assay type: functional, cell-based
Respond numerically; units are % and should not be typed.

Compound	Unit descriptor	Val
CC1=C(O)/C(=C/[C@@H](C)CCC/C(C)=C/CC/C(C)=C/CCC2=CCN(CC(=O)O)C2=O)OC1=O [IRCINIALACTAM A]	%	140
CC1=C(O)/C(=C/[C@@H](C)CCC/C(C)=C/CCC(C)(O)CCCC2=CC(=O)N(CC(=O)O)C2)OC1=O (some centres undefined) [8-HYDROXYIRCINIALACTAM B]	%	330
CC1=C(O)/C(=C/[C@@H](C)CCC/C(C)=C/CCC(C)(O)CCCC2=CCN(CC(=O)O)C2=O)OC1=O (some centres undefined) [8-HYDROXYIRCINIALACTAM A]	%	217

// next entry
# assay system Glycine receptor subunit alpha-1 (Homo sapiens) (UniProt P23415): give Activity of CC1=C(O)/C(=C/[C@@H](C)CCC/C(C)=C/CCC(C)(O)CCCc2ccoc2)OC1=O (some centres undefined)
215
